Data origin: patent US20240101572A1

Can you tell me pIC50 for the items I'm about to list?
- TESTED ON: UniProt O14939
- Sequence (O14939 whole entry): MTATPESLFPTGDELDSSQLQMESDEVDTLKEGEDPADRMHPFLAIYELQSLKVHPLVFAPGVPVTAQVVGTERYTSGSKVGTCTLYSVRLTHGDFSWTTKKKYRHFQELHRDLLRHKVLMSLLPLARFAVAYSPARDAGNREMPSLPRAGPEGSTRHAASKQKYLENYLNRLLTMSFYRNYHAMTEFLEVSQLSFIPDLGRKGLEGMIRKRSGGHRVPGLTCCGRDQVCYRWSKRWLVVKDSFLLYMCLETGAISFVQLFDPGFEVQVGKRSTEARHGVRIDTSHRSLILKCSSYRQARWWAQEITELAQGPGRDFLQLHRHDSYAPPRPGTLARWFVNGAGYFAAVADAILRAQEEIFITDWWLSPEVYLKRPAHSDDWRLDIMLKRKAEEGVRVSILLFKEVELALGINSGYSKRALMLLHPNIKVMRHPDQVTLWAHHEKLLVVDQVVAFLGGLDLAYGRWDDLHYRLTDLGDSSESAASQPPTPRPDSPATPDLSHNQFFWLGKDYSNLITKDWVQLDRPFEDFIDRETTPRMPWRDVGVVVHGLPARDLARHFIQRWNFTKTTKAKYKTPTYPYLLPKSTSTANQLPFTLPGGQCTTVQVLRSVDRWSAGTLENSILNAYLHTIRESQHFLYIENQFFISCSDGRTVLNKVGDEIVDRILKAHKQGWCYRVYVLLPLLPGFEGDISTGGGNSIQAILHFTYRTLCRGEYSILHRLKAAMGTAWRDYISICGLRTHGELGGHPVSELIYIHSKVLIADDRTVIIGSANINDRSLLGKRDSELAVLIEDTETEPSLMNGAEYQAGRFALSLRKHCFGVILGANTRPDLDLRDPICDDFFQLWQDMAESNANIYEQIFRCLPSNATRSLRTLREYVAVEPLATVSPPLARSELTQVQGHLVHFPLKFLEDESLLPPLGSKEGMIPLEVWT
- ASSAY DETAILS: Evaluation of human PLD2 enzyme inhibitory activity (Amplex Red / choline oxidase fluorescence)
- Assay type: biochemical
- TEST SETTINGS: full-length human PLD2 enzyme; read-out: PLD2 IC50
Quick note: pIC50 means taking -log10 of the concentration in moles per liter.

## Input Given C[C@@H](CN1CCC2(CC1)OC(=O)NN=C2c1ccc(F)cc1Cl)NC(=O)c1cc(C(F)(F)F)[nH]n1 , respond with its pIC50.
## Output 7.48

## Input Given CNC(=O)C(=O)N[C@@H](C)[C@@H](C)N1CCC2(CC1)OC(=O)NN=C2c1ccc(F)cc1Br , respond with its pIC50.
## Output 6.63

## Input Given CNC(=O)C(=O)N[C@@H](C)C[C@H]1CC[C@]2(CC1)OC(=O)NN=C2c1ccc(C(C)(C)O)cc1C , respond with its pIC50.
## Output 7.77

## Input Given Cc1cc(C(=O)N[C@@H](C)C[C@H]2CC[C@]3(CC2)OC(=O)NN=C3c2cnc(Cl)cc2N2CCC(F)(F)C2)[nH]n1 , respond with its pIC50.
## Output 6.61

## Input Given CNC(=O)C(=O)N[C@@H](C)C[C@H]1CC[C@]2(CC1)OC(=O)NN=C2c1cnc(I)cc1C , respond with its pIC50.
## Output 7.92

## Input Given Cc1cc(C(=O)N[C@@H](C)C[C@H]2CC[C@]3(CC2)OC(=O)NN=C3c2ccc(S(C)(=O)=O)cc2)[nH]n1 , respond with its pIC50.
## Output 7.25

## Input Given [2H]C([2H])([2H])NC(=O)C(=O)N[C@@H](C)C[C@H]1CC[C@]2(CC1)OC(=O)NN=C2c1cc(C#N)ccc1Br , respond with its pIC50.
## Output 8.70

## Input Given COc1cc(C)c(C2=NNC(=O)O[C@]23CC[C@@H](C[C@H](C)NC(=O)N2CCc4cccnc4C2)CC3)cn1 , respond with its pIC50.
## Output 6.60

## Input Given C[C@@H](C[C@H]1CC[C@]2(CC1)OC(=O)NN=C2c1ccc(F)cc1Br)NC(=O)C1(F)CC1 , respond with its pIC50.
## Output 6.44

## Input Given CC(=O)N[C@@H](C)C[C@H]1CC[C@]2(CC1)OC(=O)NN=C2c1ccc(F)cc1Br , respond with its pIC50.
## Output 6.40

## Input Given CBC(=O)C(=O)N[C@@H](C)C[C@H]1CC[C@]2(CC1)OC(=O)NN=C2c1ccc(S(C)(=O)=O)cc1Cl , respond with its pIC50.
## Output 7.80

## Input Given CNC(=O)C(=O)N[C@@H](C)C[C@H]1CC[C@]2(CC1)OC(=O)NN=C2c1cnc(Cl)cc1C , respond with its pIC50.
## Output 7.82

## Input Given Cc1cc(F)ccc1C1=NNC(=O)O[C@]12CC[C@@H](C[C@H](C)NC(=O)c1ccc(Cl)cc1F)CC2 , respond with its pIC50.
## Output 7.19

## Input Given COc1cc(C)c(C2=NNC(=O)O[C@]23CC[C@@H](C[C@H](C)NC(=O)c2cc(C)n[nH]2)CC3)cn1 , respond with its pIC50.
## Output 7.77

## Input Given C[C@@H](CN1CCC2(CC1)OC(=O)NN=C2c1cc(C#N)ccc1Cl)NC(=O)[C@H](O)C(F)(F)F , respond with its pIC50.
## Output 5.98
